experimentalTarget: Protein cereblon/Cyclin-dependent kinase 7 (Homo sapiens) (UniProt P50613+Q96SW2)
Sequence (P50613 whole entry, looked up): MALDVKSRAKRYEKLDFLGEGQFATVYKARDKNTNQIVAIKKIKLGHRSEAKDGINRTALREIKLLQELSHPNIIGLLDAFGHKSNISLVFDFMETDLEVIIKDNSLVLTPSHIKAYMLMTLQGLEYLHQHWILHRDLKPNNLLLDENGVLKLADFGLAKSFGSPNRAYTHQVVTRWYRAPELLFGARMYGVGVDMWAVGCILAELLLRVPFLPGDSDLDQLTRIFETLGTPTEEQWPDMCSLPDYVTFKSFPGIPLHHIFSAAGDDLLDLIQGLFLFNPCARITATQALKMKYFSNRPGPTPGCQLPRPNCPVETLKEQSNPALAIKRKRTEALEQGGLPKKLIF
Sequence (Q96SW2 whole entry, looked up): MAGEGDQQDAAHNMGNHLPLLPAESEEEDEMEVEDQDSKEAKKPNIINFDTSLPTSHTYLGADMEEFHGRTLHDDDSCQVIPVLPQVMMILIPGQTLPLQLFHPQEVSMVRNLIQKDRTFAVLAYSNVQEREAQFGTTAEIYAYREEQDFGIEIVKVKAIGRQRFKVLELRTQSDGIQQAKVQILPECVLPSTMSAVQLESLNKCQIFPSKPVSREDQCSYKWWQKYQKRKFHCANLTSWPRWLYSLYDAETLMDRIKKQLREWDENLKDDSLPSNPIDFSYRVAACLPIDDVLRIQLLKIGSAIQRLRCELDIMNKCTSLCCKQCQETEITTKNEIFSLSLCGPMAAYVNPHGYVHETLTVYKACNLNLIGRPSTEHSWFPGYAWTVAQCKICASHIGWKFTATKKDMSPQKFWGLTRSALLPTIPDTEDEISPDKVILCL
protocolNotes: PROTAC activity at CDK7/CRBN in human Jurkat cells assessed as degradation of CDK7 at 0.1 uM measured after 16 hrs incubation by immunoblot analysis
Format: cell-based
Calls of active or inactive are those of the source. No cut-off for these calls is given here.
measurementLabel: Activity

[
  {
    "compound": "CN(C)C[C@@H](NC(=O)N1Cc2c(NC(=O)c3ccc(C(=O)NCCOCCOCCNc4cccc5c4C(=O)N(C4CCC(=O)NC4=O)C5=O)cc3)n[nH]c2C1(C)C)c1ccccc1 (stereo partly drawn)",
    "resultValue": "inactive"
  },
  {
    "compound": "CN(C)C[C@@H](NC(=O)N1Cc2c(NC(=O)c3ccc(C(=O)NCCOCCOCCOCCNc4cccc5c4C(=O)N(C4CCC(=O)NC4=O)C5=O)cc3)n[nH]c2C1(C)C)c1ccccc1 (stereo partly drawn)",
    "resultValue": "inactive"
  },
  {
    "compound": "CN(C)C[C@@H](NC(=O)N1Cc2c(NC(=O)c3ccc(C(=O)NCCCCCCNc4cccc5c4C(=O)N(C4CCC(=O)NC4=O)C5=O)cc3)n[nH]c2C1(C)C)c1ccccc1 (stereo partly drawn)",
    "resultValue": "inactive"
  }
]
